Answer each item with its documented pIC50.
Target: HIV integrase (Human immunodeficiency virus type 1 group M subtype B, UniProt P12497, F1332H)
Construct: HIV integrase full length gene; made in house; host or cells: Escherichia coli BL21(DE3)
Assay: Determination of enzyme (HIV integrase) inhibitory activity
Type: biochemical, HIV (Human Immunodeficiency Virus (type 1))
Conditions: recombinant integrase protein (F185H), strand transfer plate assay, absorbance at 450 nm
pIC50: −log10 of the molar value.

Quick one: pIC50 of COc1cc2c(cc1Cc1cc(N3CC[C@@H](O)C3)cc(Cl)c1F)c(=O)c(C(=O)O)cn2[C@H](CO)C(C)C [Example 8] ?
> 8.00

Consider next the molecule COC[C@@H](CO)n1cc(C(=O)O)c(=O)c2cc(Cc3cc(N4CCOCC4)cc(Cl)c3F)c(OC)cc21 [Example 22] in the same way.
> 8.00

How about CCOC[C@@H](CO)n1cc(C(=O)O)c(=O)c2cc(Cc3cc(N4CCOCC4)cc(Cl)c3F)c(OC)cc21 [Example 19] ?
> 8.00

Similarly, CCc1cc2c(cc1Cc1cc(N3CCCC3=O)cc(Cl)c1F)c(=O)c(C(=O)O)cn2[C@H](CO)C(C)C [Example 24] ?
7.00 to 8.00

Now the same for CCOC[C@@H](CO)n1cc(C(=O)O)c(=O)c2cc(Cc3cc(N4CCCC4=O)cc(Cl)c3F)c(OC)cc21 [Example 39]
> 8.00

Field entry: COCC[C@@H](CO)n1cc(C(=O)O)c(=O)c2cc(Cc3cc(N4CCOCC4)cc(Cl)c3F)c(OC)cc21 [Example 29]
> 8.00

Then what about the molecule COc1cc2c(cc1Cc1cc(N3CCOC3=O)cc(Cl)c1F)c(=O)c(C(=O)O)cn2[C@H](CO)C(C)C [Example 4] ?
> 8.00

Then this molecule: COc1cc2c(cc1Cc1cc(N3CCCC3=O)cc(Cl)c1F)c(=O)c(C(=O)O)cn2[C@H](CO)C(C)(C)C [Example 45]
> 8.00

====

Consider the following molecules; for each one, report its IC50.
Biological target: HIV integrase (Human immunodeficiency virus type 1 group M subtype B, UniProt P12497, F1332H)
Construct: HIV integrase full length gene
Assay: Determination of enzyme (HIV integrase) inhibitory activity
Conditions: recombinant integrase protein (F185H), strand transfer plate assay, absorbance at 450 nm

Query: IC50; subject: COc1cc2c(cc1Cc1cc(N3CCCC3=O)c(F)c(Cl)c1F)c(=O)c(C(=O)O)cn2[C@H](CO)C(C)C [Example 25]
< 10 nM

// repeat for CCOC[C@@H](CO)n1cc(C(=O)O)c(=O)c2cc(Cc3cc(N4CCOCC4)cc(Cl)c3F)c(CC)cc21 [Example 1] and report
< 10 nM

Next up: COc1cc2c(cc1Cc1cc(-c3nccs3)cc(Cl)c1F)c(=O)c(C(=O)O)cn2[C@H](CO)C(C)C [Example 37]
10 to 100 nM

Check CCc1cc2c(cc1Cc1cc(N3CCOCC3)cc(Cl)c1F)c(=O)c(C(=O)O)cn2[C@H](CO)C(C)C [Example 23] too.
< 10 nM

Same again, this time with CCO[C@H](C)[C@@H](CO)n1cc(C(=O)O)c(=O)c2cc(Cc3cc(N4CCCC4=O)cc(Cl)c3F)c(CC)cc21 [Example 40]
10 to 100 nM

// query: COc1cc2c(cc1Cc1cc(N3CCCC3=O)cc(Cl)c1F)c(=O)c(C(=O)O)cn2[C@H](CO)C(C)C [Example 2]
< 10 nM

Similarly, CC(C)(C)[C@@H](CO)n1cc(C(=O)O)c(=O)c2cc(Cc3cc(N4CCCC4=O)cc(Cl)c3F)ccc21 [Example 51] ?
< 10 nM

For COc1cc2c(cc1Cc1cc(N3CCC(=O)N3C)cc(Cl)c1F)c(=O)c(C(=O)O)cn2[C@H](CO)C(C)C [Example 10] then?
< 10 nM

And for COc1cc2c(cc1Cc1cc(N3CCOCC3)cc(Cl)c1F)c(=O)c(C(=O)O)cn2[C@H](CO)[C@@H](C)OC [Example 15] ?
< 10 nM

Then what about the molecule CCO[C@H](C)[C@@H](CO)n1cc(C(=O)O)c(=O)c2cc(Cc3cc(N4CCOCC4)cc(Cl)c3F)c(CC)cc21 [Example 38] ?
< 10 nM
